Assay: Plasma protein binding (equilibrium dialysis), Method B5
Format: in vitro ADME
Conditions: human plasma, 60 min at 37° C., typically 10 μM
fraction unbound at 60 min, 10 μM overview
A bare number is all that is needed in reply.

Some solved cases for reference:
MOLECULE	VALUE
CC(C)[C@@H]1NCCOc2ccccc2C#CCNC(=O)[C@@H](Cc2ccccc2)NC(=O)[C@H](C(C)O)N(C)C1=O (some centres unmarked)	0.024
CC(C)[C@@H]1NCCOc2ccccc2C2CCC(C2)NC(=O)[C@@H](Cc2ccc(F)cc2)NC(=O)[C@H](C(C)O)N(C)C1=O (some centres unmarked)	0.159
Cc1cccc(C[C@H]2NC(=O)[C@H](C(C)O)N(C)C(=O)[C@H](C(C)C)NCCOc3ccccc3C[C@H](O)CNC2=O)c1 (some centres unmarked)	0.243
CC(O)[C@H]1C(=O)N[C@H](Cc2ccccc2)C(=O)NCCCc2cccc3c2OC(CC3)CN[C@@H](C2CC2)C(=O)N1C (some centres unmarked)	0.076
CC(O)[C@H]1C(=O)N[C@H](Cc2ccccc2)C(=O)NCC#Cc2c(F)cccc2OCCN[C@@H](C2(C)CC2)C(=O)N1C (some centres unmarked)	0.05

Q. Requested read-out: fraction unbound at 60 min, 10 μM. Entry: CC[C@@H]1NCC2CCc3cccc(c3O2)CCCNC(=O)[C@@H](Cc2ccccc2)NC(=O)[C@H](C(C)O)N(C)C1=O (some centres unmarked)
A. 0.061

Q. // next record CC(C)[C@@H]1NCCOc2ccccc2C#C[C@@H](C)NC(=O)[C@@H](Cc2ccccc2)NC(=O)[C@H](C(C)O)N(C)C1=O (some centres unmarked)
A. 0.091

Q. // next record CC(C)[C@@H]1NCCOc2ccccc2C[C@H](O)[C@@H](C)NC(=O)[C@@H](Cc2cccc(F)c2)NC(=O)[C@H](C(C)O)N(C)C1=O (some centres unmarked)
A. 0.221

Q. // next record CC(C)[C@@H]1NCCOc2ccccc2C2CCC(C2)NC(=O)[C@@H](Cc2ccccc2)NC(=O)[C@H](C(C)O)N(C)C1=O (some centres unmarked)
A. 0.207

Q. // next record CC[C@@H]1CCc2ccc(F)cc2OCCN[C@@H](C(C)C)C(=O)N(C)[C@@H](C(C)O)C(=O)N[C@H](Cc2c[nH]c3ccccc23)C(=O)N1 (some centres unmarked)
A. 0.036

Q. // next record CC(O)[C@H]1C(=O)N[C@H](Cc2ccccc2)C(=O)NCC#Cc2ccccc2OCCN[C@@H](C2(C)CC2)C(=O)N1C (some centres unmarked)
A. 0.127

----------
Assay: Pharmacokinetic analysis (intravenous and oral), Method B9
Format: in vivo
Settings: plasma; Table 10b; 2 mg/mL intravenous typically employed
Text: B9. Pharmacokinetic Analysis The pharmacokinetic (PK) behavior of compounds of the invention and their pharmaceutical compositions can be ascertained by methods well known to those skilled in the art and can be used to investigate the pharmacokinetic parameters (elimination half-life, total plasma clearance, etc.) for intravenous, subcutaneous and oral administration of these substances. […]
OBSERVATION_TYPE: half-life (h)
# unit: h | format: bare number

Some solved cases for reference:
MOLECULE	UNIT_TEXT	half-life
CC(O)[C@H]1C(=O)N[C@H](Cc2ccccc2)C(=O)NCC#Cc2ccc(F)cc2OCCN[C@@H](C2(C)CC2)C(=O)N1C (stereo partly shown) [Compound 1918]	h	1.9
CC(O)[C@H]1C(=O)N[C@H](Cc2ccccc2)C(=O)NCC#Cc2c(F)cccc2OCCN[C@@H](C2(C)CC2)C(=O)N1C (stereo partly shown) [Compound 1876]	h	2.65

Q. Requested read-out: half-life. Entry: CC(O)[C@H]1C(=O)N[C@H](Cc2ccccc2)C(=O)NCC#Cc2ccccc2OCCN[C@@H](C2(C)CC2)C(=O)N1C (stereo partly shown) [Compound 1878]
A. 2.07

Q. // next record CC(O)[C@H]1C(=O)N[C@H](Cc2ccccc2)C(=O)NCCCc2cccc3c2OC(CC3)CN[C@@H](C2CC2)C(=O)N1C (stereo partly shown) [Compound 1778]
A. 0.983

----------
Biological target: human ghrelin receptor (GRLN, growth hormone secretagogue receptor, hGHS-R1a) (Homo sapiens, UniProt Q92847)
Construct: purchased PerkinElmer BioSignal #RBHGHSM, lot#1887; host or cells: HEK-293 cells, stably transfected (membranes)
Sequence (Q92847 whole entry): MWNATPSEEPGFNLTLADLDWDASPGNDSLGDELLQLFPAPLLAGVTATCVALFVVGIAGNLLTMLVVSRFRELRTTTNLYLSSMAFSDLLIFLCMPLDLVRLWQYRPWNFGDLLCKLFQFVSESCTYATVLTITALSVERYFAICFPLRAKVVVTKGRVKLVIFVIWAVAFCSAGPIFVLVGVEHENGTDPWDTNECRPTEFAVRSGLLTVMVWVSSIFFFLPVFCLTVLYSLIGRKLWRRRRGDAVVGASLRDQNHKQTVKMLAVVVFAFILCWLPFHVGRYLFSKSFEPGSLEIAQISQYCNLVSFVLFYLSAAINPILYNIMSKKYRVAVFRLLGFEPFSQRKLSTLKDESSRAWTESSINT
Test: Competitive radioligand binding assay (ghrelin receptor), Method B1
Details: Ghrelin receptor binding activity, Method B1
OBSERVATION_TYPE: Ki

Some solved cases for reference:
COMPOUND	Ki
CCC(C)[C@@H]1NCCOc2ccccc2/C=C/CNC(=O)[C@@H](Cc2cccs2)NC(=O)[C@H](C(C)O)N(C)C1=O (stereo partly drawn) [Compound 1332]	10 to 100 nM
CCC(C)[C@@H]1NCCOc2ccccc2/C=C/CNC(=O)[C@@H](Cc2ccccc2F)NC(=O)[C@H](C(C)O)N(C)C1=O (stereo partly drawn) [Compound 1325]	10 to 100 nM

Q. Requested read-out: Ki. Entry: CCC(C)[C@@H]1NC[C@@H](C)Oc2ccccc2/C=C/CNC(=O)[C@@H](Cc2ccccc2)NC(=O)[C@H](C(C)O)N(C)C1=O (stereo partly drawn) [Compound 1313]
A. 10 to 100 nM

Q. // next record CCC(C)[C@@H]1NCCOc2ccccc2/C=C/CNC(=O)[C@@H](Cc2c[nH]cn2)NC(=O)[C@H](C(C)O)N(C)C1=O (stereo partly drawn) [Compound 1329]
A. 10 to 100 nM

Q. // next record CCC(C)[C@@H]1NCCOc2cccnc2CCCNC(=O)[C@@H](Cc2ccccc2)NC(=O)[C@H](C(C)O)N(C)C1=O (stereo partly drawn) [Compound 1311]
A. > 500 nM

Q. // next record CCC(C)[C@@H]1N[C@@H](C)COc2ccccc2CCCNC(=O)[C@@H](Cc2ccccc2)NC(=O)[C@H](C(C)O)N(C)C1=O (stereo partly drawn) [Compound 1348]
A. 100 to 500 nM

----------
Test: Pharmacokinetic analysis (intravenous and oral), Method B9
Type: in vivo
Details: plasma
OBSERVATION_TYPE: half-life (h)
# unit: h | format: bare number

Q. Requested read-out: half-life. Entry: CC[C@@H]1CCc2ccc(F)cc2OCCN[C@@H](C(C)C)C(=O)N(C)[C@@H](C(C)O)C(=O)N[C@H](Cc2c[nH]c3ccccc23)C(=O)N1 (stereo partly shown)
A. 1.07

----------
pIC50 overview
Molecular target: human ghrelin receptor (GRLN, growth hormone secretagogue receptor, hGHS-R1a) (Homo sapiens, UniProt Q92847)
Construct: purchased PerkinElmer BioSignal #RBHGHSM, lot#1887; host or cells: HEK-293 cells, stably transfected (membranes)
Assay: Competitive radioligand binding assay (ghrelin receptor), Method B1
Settings: Ghrelin receptor binding activity, Method B1
pIC50: −log10 of the molar value.

Some solved cases for reference:
MOLECULE	pIC50
CC[C@@H]1CCc2ccc(F)cc2OCCN[C@@H](C2(C)CC2)C(=O)N(C)[C@@H](C(C)O)C(=O)N[C@H](Cc2ccc(F)cc2)C(=O)N1 (stereo partly drawn)	7.00 to 8.00
CCC1CCc2ccc(F)cc2OCCNC(C(C)C)C(=O)N(C)C(C(C)O)C(=O)NC(Cc2cn(S(=O)(=O)c3ccc(C)cc3)c3ccccc23)C(=O)N1 (stereo not drawn)	7.00 to 8.00
CC(C)[C@@H]1NCCOc2cc(F)ccc2CCC(CC(F)(F)F)NC(=O)[C@@H](Cc2c[nH]c3ccccc23)NC(=O)[C@H](C(C)O)N(C)C1=O (stereo partly drawn)	6.30 to 7.00
CCC1CCc2ccc(C(F)(F)F)cc2OCCNC(C(C)C)C(=O)N(C)C(C(C)O)C(=O)NC(Cc2ccccc2)C(=O)N1 (stereo not drawn)	6.30 to 7.00
CC[C@@H]1CCc2ccc(F)cc2OCCN[C@@H](C(C)C)C(=O)N(C)[C@@H](C(C)O)C(=O)N[C@H](Cc2ccc(Cl)cc2)C(=O)N1 (stereo partly drawn)	7.00 to 8.00

Now look at this entry.
Q. Requested read-out: pIC50. Entry: CC[C@@H]1CCc2ccc(F)cc2OCCN[C@@H](C2(C)CC2)C(=O)N(C)[C@@H](C(C)O)C(=O)N[C@H](Cc2ccccc2)C(=O)N1 (stereo partly drawn)
A. 8.00 to 9.00

----------
Test: Pharmacokinetic analysis (intravenous and oral), Method B9
Format: in vivo
Conditions: plasma; Intravenous, 2 mg/kg; read-out: Vz
OBSERVATION_TYPE: Vd
The reply should read as a number followed by its unit.

Some solved cases for reference:
COMPOUND	Vd
CC(C)[C@@H]1NCCOc2ccccc2C2CCC(C2)NC(=O)[C@@H](Cc2ccccc2)NC(=O)[C@H](C(C)O)N(C)C1=O (stereo partly drawn)	2.55 L/kg
CC(C)[C@@H]1NCCOc2ccccc2C#CCNC(=O)[C@@H](Cc2ccccc2)NC(=O)[C@H](C(C)O)N(C)C1=O (stereo partly drawn)	13.2 L/kg

Q. Requested read-out: Vd. Entry: CC(C)[C@@H]1NCCOc2cccc(F)c2C#CCNC(=O)[C@@H](Cc2ccccc2)NC(=O)[C@H](C(C)O)N(C)C1=O (stereo partly drawn)
A. 7.99 L/kg
